meta.source: patent US9724351B2

Property: CC50 at 5 days; scope: individual compounds
- ASSAY_COMMENT: Cytotoxicity Determination
- Format: cell-based
- EXPERIMENTAL_CONTEXT: human, HEp-2 cells, without addition of virus, CCK-8 readout, bins (Table 4: greater than 100 μM; Table 5: equal to or less than 100 μM and greater than 10 μM), read-out: 50% cytotoxicity concentration (CC50)

Some compounds with known CC50 at 5 days results, for comparison:
INSERT INTO measurements (compound, reported_value) VALUES
  ('CCN(CC)c1cc(C(=O)NCC(=O)N/N=C(\C)c2csc3ccccc23)cs1', '10 to 100 µM'),
  ('CCN(CC)c1cccc(C(=O)NCC(=O)N/N=C(\C)c2csc3ccccc23)c1', '> 100 µM'),
  ('COc1ccc(C(=O)NCC(=O)N/N=C/c2cccc3ccccc23)cc1OC', '10 to 100 µM'),
  ('CCOc1ccc(C(=O)NCC(=O)N/N=C(\CCOC)c2csc3c(F)cccc23)cc1OC [Compound 463A]', '> 100 µM'),
  ('CCOc1ccc(C(=O)NCC(=O)N/N=C(\CC2CCCCC2)c2csc3ccccc23)cc1OC', '> 100 µM');

"C/C(=N\NC(=O)CNC(=O)c1ccc(N2CCCC2)cc1)c1csc2ccccc12" has a reported CC50 at 5 days of > 100 µM

"CCCC/C(=N\NC(=O)CNC(=O)c1cc(OC)c(OC)cc1Br)c1csc2ccccc12" has a reported CC50 at 5 days of 10 to 100 µM

COc1cc(C(=O)NC(CCO)C(=O)c2ccc(OC)c(-c3ccc(F)c(Cl)c3)n2)ccc1OCCO (centres unmarked) has a reported CC50 at 5 days of 10 to 100 µM

"COc1cc(C(=O)N[C@@H](COC(C)(C)C)C(=O)c2ccc(OC)c(-c3csc4c(F)cccc34)n2)ccc1OCCO" has a reported CC50 at 5 days of 10 to 100 µM

"COc1cc(C(=O)NCC(=O)N/N=C/c2csc3c(F)cccc23)ccc1OCCO" has a reported CC50 at 5 days of > 100 µM

"COc1ccc(C(=O)NCC(=O)N/N=C(\CO)c2csc3ccccc23)cc1OC" has a reported CC50 at 5 days of > 100 µM
